Test system: pCHK1 (S345) in Colo320 DM cells
Assay info: Alphalisa assay, detection of pCHK1 (S345) in Colo320 DM cells
Assay type: cell-based, human
Condition set: Homo sapiens, COLO 320DM, compound overnight (approximately 16 hours)
pIC50: −log10 of the molar value.
Assay endpoint: pIC50

Before answering, review these 5 worked examples.
- Compound: "Cc1ccc(F)c([C@@H](C)[C@@H](c2n[nH]c(=O)o2)N2CCOc3c(ccc(Cl)c3C(C)O)S2(=O)=O)c1C (single isomer, unassigned) [Example 28]"
  Observed measurement: "< 4.30"
- Compound: "Cc1ccc(F)c([C@@H](C)[C@@H](c2n[nH]c(=O)o2)N2CNc3cc(Cl)ccc3S2(=O)=O)c1C [Example 8]"
  Observed measurement: "≥ 6.00"
- Compound: "Cc1cc2c(cc1Cl)N(C)CN([C@H](c1n[nH]c(=O)o1)[C@H](C)c1c(F)ccc(C)c1C)S2(=O)=O [Example 12]"
  Observed measurement: "5.00 to 5.30"
- Compound: "CNCCN1CN([C@H](c2n[nH]c(=O)o2)[C@H](C)c2c(F)ccc(C)c2C)S(=O)(=O)c2ccc(Cl)cc21 [Example 115]"
  Observed measurement: "5.00 to 5.30"
- Compound: "Cc1ccc(F)c([C@@H](C)[C@@H](c2n[nH]c(=O)o2)N2CN(C3CN(CC(F)(F)F)C3)c3cc(Cl)ccc3S2(=O)=O)c1C [Example 96]"
  Observed measurement: "≥ 6.00"

Look up pIC50 with pCHK1 (S345) in Colo320 DM cells for this compound: Cc1ccc(F)c([C@@H](C)[C@@H](c2n[nH]c(=O)o2)N2CCOc3c(ccc(Cl)c3[C@@H](C)N(C)C)S2(=O)=O)c1C (single isomer, unassigned) [Example 54]
5.30 to 6.00

Ok, now CC(=O)c1cc(Cl)cc2c1S(=O)(=O)N([C@H](c1n[nH]c(=O)o1)[C@H](C)c1c(F)ccc(C)c1C)CN2CCO [Example 110]
≥ 6.00

Ok, now Cc1ccc(F)c([C@@H](C)[C@@H](c2n[nH]c(=O)o2)N2CN([C@@H]3CCOC[C@H]3F)c3cc(Cl)ccc3S2(=O)=O)c1C [Example 97]
≥ 6.00

Ok, now CC(=O)c1cc(Cl)cc2c1S(=O)(=O)N([C@H](c1n[nH]c(=O)o1)[C@H](C)c1c(F)ccc(C)c1C)CO2 [Example 102]
≥ 6.00

Ok, now CC(=O)c1c(Cl)ccc2c1OCCN([C@H](c1n[nH]c(=O)o1)[C@H](C)c1c(F)ccc(C)c1C)S2(=O)=O [Example 25]
5.30 to 6.00

Ok, now Cc1ccc(F)c([C@@H](C)[C@@H](c2n[nH]c(=O)o2)N2CN(C)c3cc(Cl)ccc3S2(=O)=O)c1C [Example 1]
≥ 6.00

Ok, now Cc1ccc(F)c([C@@H](C)[C@@H](c2n[nH]c(=O)o2)N2C(C)N(C)c3cc(Cl)ccc3S2(=O)=O)c1C (stereo partly shown) [Example 11]
4.30 to 5.00

Ok, now Cc1ccc(F)c([C@@H](C)[C@@H](c2n[nH]c(=O)o2)N2CN(CCCN(C)C)c3cc(Cl)ccc3S2(=O)=O)c1C [Example 34]
5.30 to 6.00
